Origin of measurements: patent US9630957B2

Test system: Vero cells
EXPERIMENTAL_DETAILS: Cytotoxicity of the compounds for Vero cells (CPE observation, TC50)
Format: cell-based
PROTOCOL_CONDITIONS: no virus
OBSERVATION_TYPE: TC50 (half toxic concentration for Vero cells) (µg/mL)
State the answer as a number, implicitly in µg/mL.

Ask: What does the data say about its TC50 (half toxic concentration for Vero cells)? Entry: O=C(Nc1ccccc1Br)[C@H]1O[C@@H]1C(=O)N(Cc1ccccc1)c1ccccc1 [Compound 15]
Result: 1.43

Ask: Also CCOC(=O)c1cnc(NC(=O)[C@H]2O[C@@H]2C(=O)N(Cc2ccc(F)cc2)c2ccc(C(=O)Nc3nc4ccccc4s3)cc2)s1 [Compound 35] ?
Result: 4.28

Ask: Also O=C(Nc1ccccc1F)[C@H]1O[C@@H]1C(=O)N(Cc1ccccc1)c1ccccc1 [Compound 6] ?
Result: 4.28

Ask: Also COC(=O)c1csc(NC(=O)[C@H]2O[C@@H]2C(=O)N(Cc2ccc(F)cc2)c2ccc(C(=O)Nc3nc4ccccc4s3)cc2)n1 [Compound 34] ?
Result: 1.43

Ask: Also Cc1c(Cl)cccc1NC(=O)[C@H]1O[C@@H]1C(=O)N(Cc1ccccc1)c1ccccc1 [Compound 13] ?
Result: 1.19

Ask: Also COC(=O)c1cnc(NC(=O)[C@H]2O[C@@H]2C(=O)N(Cc2ccccc2)c2ccc(C(=O)Nc3nc4ccccc4s3)cc2)s1 [Compound 42] ?
Result: 4.28

Ask: Also COC(=O)c1cnc(NC(=O)[C@H]2O[C@@H]2C(=O)N(Cc2ccc(F)cc2)c2ccc(C(=O)Nc3nc4ccccc4s3)cc2)s1 [Compound 36] ?
Result: 3.56
